- System Tested: VIM-1 (Pseudomonas aeruginosa (strain ATCC 15692 / DSM 22644 / CIP 104116 / JCM 14847 / LMG 12228 / 1C / PRS 101 / PAO1))
- Test Name: biochemical
- Condition Label: CCF2-FA substrate, 2 hours at 25° C
Counter-ions that a name gives are not always drawn.
Here the recorded log10 of IC50 is given for each entry.
Log scale reminder: IC50 in nM, then log10 taken.

Cc1cc(-c2ccc(S(=O)(=O)CCN)c(S(N)(=O)=O)c2-c2nnn[nH]2)cnc1N.O=C(O)C(F)(F)F [Example 172, 2,2,2-trifluoroacetate]    -0.71

Can you look up the measured log10 of IC50 of Nc1nc2cc(-c3ccc(SC4CNC4)c(S(N)(=O)=O)c3-c3nn[nH]n3)ccc2[nH]1 [Example 1] for me?
2.15

Can you look up the measured log10 of IC50 of Nc1nc2cc(-c3ccc(S(=O)(=O)C4CNC4)c(S(N)(=O)=O)c3-c3nn[nH]n3)ccc2o1 [Example 31] for me?
-0.43

Can you look up the measured log10 of IC50 of NCCS(=O)(=O)c1ccc(-c2cncc3sc(N)nc23)c(-c2nn[nH]n2)c1S(N)(=O)=O [Example 81, hydrochloride] for me?
-0.45

---

- System Tested: UniProt P52699
- Test Name: biochemical
- Assay type: biochemical
- Condition Label: CCF2-FA substrate, 2 hours at 25° C; read-out: IMP-1 IC50
pIC50: −log10 of the molar value.
Returns yes if the recorded pIC50 is greater than or equal to 9, and no otherwise.

NCCS(=O)(=O)c1ccc(-c2ccc3nc(N)oc3c2)c(-c2nn[nH]n2)c1S(N)(=O)=O [Example 75]    yes
NC1CCC(c2ccc(S(=O)(=O)C3CCNCC3)c(S(N)(=O)=O)c2-c2nnn[nH]2)CC1 (centres unmarked) [Example 206]    no
NCCS(=O)(=O)c1ccc(-c2cccc3ccc(N)nc23)c(-c2nn[nH]n2)c1S(N)(=O)=O [Example 71]    yes

Is it the case that NCCS(=O)(=O)c1ccc(-c2cccc3[nH]c([C@H](N)CO)nc23)c(-c2nn[nH]n2)c1S(N)(=O)=O [Example 329] has pIC50 reaching or exceeding 9?
no

Is it the case that NS(=O)(=O)c1c([S+]([O-])C2CCNCC2)ccc(-c2ccc(C3CCNCC3)cc2)c1-c1nnn[nH]1 (centres unmarked) [Example 227] has pIC50 reaching or exceeding 9?
no

---

Here the recorded pIC50 is given for each entry.
- System Tested: NDM-1 (Klebsiella pneumoniae)
- Sequence (C7C422 whole entry, looked up, species assumed): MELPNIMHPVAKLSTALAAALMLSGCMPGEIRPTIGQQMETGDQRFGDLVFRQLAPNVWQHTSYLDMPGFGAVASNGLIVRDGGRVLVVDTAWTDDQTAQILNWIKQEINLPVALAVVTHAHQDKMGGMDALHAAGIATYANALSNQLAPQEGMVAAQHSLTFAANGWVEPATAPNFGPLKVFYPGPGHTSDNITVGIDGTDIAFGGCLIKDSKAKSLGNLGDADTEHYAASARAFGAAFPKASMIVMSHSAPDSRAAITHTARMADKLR
- Test Name: biochemical
- Type: biochemical
- Condition Label: CCF2-FA substrate, 2 hours at 25° C; read-out: NDM-1 IC50
In textbook form, pIC50 equals minus log to base ten of the concentration in mol/L.

NS(=O)(=O)c1c(S(=O)(=O)C2CNC2)ccc(-c2cccc3[nH]c(C(=O)O)nc23)c1-c1nn[nH]n1    9.76
C[C@H](CN)S(=O)(=O)c1ccc(-c2cccc3c2nc(N)n3C)c(-c2nn[nH]n2)c1S(N)(=O)=O    9.09
NCCS(=O)(=O)c1ccc(-c2cccc3cn[nH]c23)c(-c2nnn[nH]2)c1S(N)(=O)=O    9.37
NCCS(=O)(=O)c1ccc(-c2cccc3[nH]c(C(F)(F)CN)nc23)c(-c2nn[nH]n2)c1S(N)(=O)=O    10.43
NCCS(=O)(=O)c1ccc(-c2cccc(S(=O)(=O)NC3CC3)c2)c(-c2nnn[nH]2)c1S(N)(=O)=O.O=C(O)C(F)(F)F [Example 161, 2,2,2-trifluoroacetate]    8.46

Lab note: need pIC50 with NDM-1 (Klebsiella pneumoniae) for entry CCCn1c(N)nc2c(-c3ccc(S(=O)(=O)C4CNC4)c(S(N)(=O)=O)c3-c3nn[nH]n3)cccc21 , please look it up.
9.92

Lab note: need pIC50 with NDM-1 (Klebsiella pneumoniae) for entry CNC(=O)c1nc2c(-c3ccc(S(=O)(=O)C4CNC4)c(S(N)(=O)=O)c3-c3nn[nH]n3)cccc2[nH]1 , please look it up.
9.82

Lab note: need pIC50 with NDM-1 (Klebsiella pneumoniae) for entry Nc1nc2c(-c3ccc(S(=O)(=O)C4CNC4)c(S(N)(=O)=O)c3-c3nn[nH]n3)cccc2s1 , please look it up.
10.51

---

Here the recorded pIC50 is given for each entry.
- System Tested: VIM-1 (Pseudomonas aeruginosa (strain ATCC 15692 / DSM 22644 / CIP 104116 / JCM 14847 / LMG 12228 / 1C / PRS 101 / PAO1), UniProt A0A0F7KYQ8)
- Test Name: biochemical
- Condition Label: CCF2-FA substrate, 2 hours at 25° C
In textbook form, pIC50 equals minus log to base ten of the concentration in mol/L.

Would you please look over these solved cases?
Cl.Cl.NCCCS(=O)(=O)c1ccc(-c2cccc3[nH]c(N)nc23)c(-c2nn[nH]n2)c1S(N)(=O)=O [Example 270, dihydrochloride]    9.64
Nc1nc2c(-c3ccc(S(=O)(=O)C4CNC4)c(S(N)(=O)=O)c3-c3nn[nH]n3)ccc(F)c2[nH]1 [Example 251]    9.60
NS(=O)(=O)c1c(S(=O)(=O)C2CNC2)ccc(-c2cccc3cccnc23)c1-c1nnn[nH]1.O=C(O)C(F)(F)F [Example 128, 2,2,2-trifluoroacetate]    9.50
NCCS(=O)(=O)c1ccc(-c2cncc(CO)c2)c(-c2nnn[nH]2)c1S(N)(=O)=O.O=C(O)C(F)(F)F [Example 143, 2,2,2-trifluoroacetate]    8.69
NS(=O)(=O)c1c(S(=O)(=O)[C@@H]2CCNC2)ccc(-c2cccc3cn[nH]c23)c1-c1nn[nH]n1 [Example 185]    9.26

Can you look up the measured pIC50 of Cn1cc2ccc(-c3ccc(S(=O)(=O)CCN)c(S(N)(=O)=O)c3-c3nnn[nH]3)cc2n1.O=C(O)C(F)(F)F [Example 154, 2,2,2-trifluoroacetate] for me?
9.37

Can you look up the measured pIC50 of Nc1nc2c(-c3ccc(S(=O)(=O)[C@@H]4CN[C@H](CO)C4)c(S(N)(=O)=O)c3-c3nn[nH]n3)cccc2[nH]1 [Example 350] for me?
9.17

Can you look up the measured pIC50 of NC(=O)CN1CC(S(=O)(=O)c2ccc(-c3cccc4[nH]c(N)nc34)c(-c3nn[nH]n3)c2S(N)(=O)=O)C1 [Example 50] for me?
9.23

---

- System Tested: IMP-1 (Serratia marcescens)
- Sequence (P52699 whole entry, looked up, species assumed): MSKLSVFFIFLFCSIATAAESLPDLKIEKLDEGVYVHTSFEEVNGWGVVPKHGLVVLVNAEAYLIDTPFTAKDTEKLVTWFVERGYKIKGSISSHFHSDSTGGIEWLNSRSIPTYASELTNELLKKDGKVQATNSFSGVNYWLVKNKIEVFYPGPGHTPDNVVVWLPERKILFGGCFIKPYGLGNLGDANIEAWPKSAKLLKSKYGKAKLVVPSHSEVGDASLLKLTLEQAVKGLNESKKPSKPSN
- Test Name: biochemical
- Format: biochemical
- Condition Label: CCF2-FA substrate, 2 hours at 25° C; read-out: IMP-1 IC50
Parameter Measured: IC50 (nM)
Just the number in nM, nothing appended.

Would you please look over these solved cases?
NCCS(=O)(=O)c1ccc(-c2ccc3c(=O)nc[nH]c3c2)c(-c2nnn[nH]2)c1S(N)(=O)=O.O=C(O)C(F)(F)F [Example 165, 2,2,2-trifluoroacetate]    1.6
NC[C@@H](CO)S(=O)(=O)c1ccc(-c2cccc3nc(N)[nH]c23)c(-c2nn[nH]n2)c1S(N)(=O)=O    1.15
Cn1nc(N)c2c(-c3ccc(S(=O)(=O)CCN)c(S(N)(=O)=O)c3-c3nnn[nH]3)cccc21    0.643
Nc1n[nH]c2ccc(-c3ccc(S(=O)(=O)C4CNC4)c(S(N)(=O)=O)c3-c3nnn[nH]3)cc12    1.82
NCCS(=O)(=O)c1ccc(-c2cccc(C(=O)O)c2N)c(-c2nn[nH]n2)c1S(N)(=O)=O    1.84

Next compound, please.
Can you look up the measured IC50 of NCCCNC(=O)c1cccc(-c2ccc(S(=O)(=O)CCN)c(S(N)(=O)=O)c2-c2nn[nH]n2)c1N for me?
1.71
